Reference source for all entries: BindingDB's records for doi:10.1002/cbic.201000413

study-target: Peptidyl-prolyl cis-trans isomerase A (Homo sapiens, UniProt P62937)
Sequence (P62937 whole entry): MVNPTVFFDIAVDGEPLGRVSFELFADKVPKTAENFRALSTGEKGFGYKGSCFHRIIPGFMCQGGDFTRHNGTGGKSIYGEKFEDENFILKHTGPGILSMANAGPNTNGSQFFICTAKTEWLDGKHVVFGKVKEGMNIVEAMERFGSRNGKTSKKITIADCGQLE
procedure-summary: ESI-MS Assay
observable: Kd (µM)
Write the answer as a number in µM, unit excluded.

Some solved entries appear below for comparison.
>>> reported_value("COC(=O)[C@H](CCCCN)C1C(=O)CC2C1=CC(=O)CC2(C)C (stereo partly specified)")
72.6
>>> reported_value("COC(=O)[C@H](CCCCNC(=O)OCc1ccccc1)C1C(=O)CC2C1=CC(=O)CC2(C)C (stereo partly specified)")
128
>>> reported_value("COC(=O)[C@H](CCCN=C(N)N[N+](=O)[O-])C1C(=O)CC2C1=CC(=O)CC2(C)C (stereo partly specified)")
31.9

Query :: Which Kd is reported for this compound? COC(=O)[C@H](CCCCNS(=O)(=O)c1cccc2c(N(C)C)cccc12)C1C(=O)C[C@@H]2C1=CC(=O)CC2(C)C (stereo partly specified)
Result :: 133

Query :: Which Kd is reported for this compound? COC(=O)[C@H](CCCCNS(=O)(=O)c1cccc2c(N(C)C)cccc12)C1C(=O)CC2C1=CC(=O)CC2(C)C (stereo partly specified)
Result :: 113

Query :: Which Kd is reported for this compound? COC(=O)[C@H](CCCCNC(C)=O)C1C(=O)CC2C1=CC(=O)CC2(C)C (stereo partly specified)
Result :: 85.1
